test system: Saccharomyces cerevisiae; experiment: protein stability index of tFT-peptide fusion (C-terminal peptide) (PSI (0-1 scale)); higher = more stable (slower turnover); conditions: genetic background: wild type; temperature: 37 C
Recorded protein stability index by entry
PROPERTY_MEASURED: protein stability index

RESIDUE_STRING	OBSERVED_RESULT
GLPGYAWGRSGG	0.722
VMLVISRLLLLF	0.168
VFLCFSWHFFLF	0.467
RLVYSQKRWSLF	0.451
FYIWFFRLIYFF	0.453
RLMVHQHTIPVR	0.533
VFGWWSVVLRVA	0.0612
LLFFGFVGSCVF	0.57
RSRRNRYSRKIA	0.141
RFYLFLFFVRST	0.131
GFSSRWLMQYMV	0.462
GTWCLAMARFCA	0.606
ILFIVSSCGCVG	0.572
LVSYHKMAISSF	0.571
MALAVRVVTCGA	0.313
PLSDPLRVILIM	0.328
WFLLILFSAFAV	0.471

* * *

test system: Saccharomyces cerevisiae; assay: protein stability index of tFT-peptide fusion (C-terminal peptide) (PSI (0-1 scale)); higher = more stable (slower turnover); conditions: genetic background: wild type; temperature: 37 C
Recorded protein stability index by entry
PROPERTY_MEASURED: protein stability index

RESIDUE_STRING	OBSERVED_RESULT
VFVFTFSLSFYC	0.324
GPFVRSALIFIF	0.547
AIPRWLALLVAH	0.238
LLVLPFFSLSRF	0.852
IFFSLFFFFLCN	0.421
GGVVGGVGVYDG	0.706
FSVRLCLFVWGC	0.448
NAAVQSGGRVAG	0.696
QGILVGCCYVLC	0.466
LFLFVGCSVRRL	0.574
VFWVVFRALVGD	0.26
KALFPGLLLCAF	0.268
MSHVCICRRLML	0.646
RVVILFVFLVYV	0.365
RALYLLALVGVS	0.348
LPASLSLWPLLC	0.127
GVFVVVGEASVH	0.564
MIQPRLANIIIS	0.779
AWLWCVCWSIMR	0.453
LCTCFLVLLLWC	0.441
FFFFLVPVHCVI	0.406
FLSPPPFLALLP	0.717
GVFVWVVFVCTM	0.315
HCNRRNKIYWYS	0.189
FLSRHFLFLSFV	0.443

* * *

test system: Saccharomyces cerevisiae; assay: protein stability index of tFT-peptide fusion (C-terminal peptide) (PSI (0-1 scale)); higher = more stable (slower turnover); settings: genetic background: das1 deletion; temperature: 37 C

RESIDUE_STRING	ASSAY_TARGET	protein stability index
CLLVCCCFYRNV	Saccharomyces cerevisiae	0.586
RLLCLARMRGLH	Saccharomyces cerevisiae	0.728
CVARWPRPAGSS	Saccharomyces cerevisiae	0.729
FLIFFVCLFRWK	Saccharomyces cerevisiae	0.319
GVKSQLYSFVWF	Saccharomyces cerevisiae	0.747
GGGGGGGGGGVG	Saccharomyces cerevisiae	0.457
VVWLFGVSWCWL	Saccharomyces cerevisiae	0.525

* * *

system: Saccharomyces cerevisiae; test: protein stability index of tFT-peptide fusion (C-terminal peptide) (PSI (0-1 scale)); higher = more stable (slower turnover); conditions: genetic background: das1 deletion; temperature: 30 C
Mark False for protein stability index values under 0.7, and True for everything at or above.

RESIDUE_STRING	GROUP_LABEL
FSYIRSKQMQQK [MNE1 C-terminal 12 aa]	True
KPSAKPVDLSKL [DAL7 C-terminal 12 aa]	True
IRAAGGVVELIA [RPL28 C-terminal 12 aa]	False
TVNLIKSQLVRG [COQ9 C-terminal 12 aa]	False
HVAPYAIIPFII [DFG10 C-terminal 12 aa]	True
VLAILFYPAWVE [YGR160W C-terminal 12 aa]	False
DYKLLKELASQV [GLT1 C-terminal 12 aa]	False
QAYIYIYIHIVN [EST2 C-terminal 12 aa]	False
ITTKRSLCSSKD [PEX25 C-terminal 12 aa]	False
NAKKGSKIEEIE [PTC3 C-terminal 12 aa]	False
EQEVIFTDLTAY [ECM32 C-terminal 12 aa]	True
MGVFILFLDYVG [UFE1 C-terminal 12 aa]	False
MYGLGIRDCCIM [RCY1 C-terminal 12 aa]	True

* * *

system: Saccharomyces cerevisiae; assay: protein stability index of tFT-peptide fusion in wild type (PSI (0-1 scale)); higher = more stable (slower turnover); settings: genetic background: wild type
Mark False for protein stability index values under 0.2, and True for everything at or above.

RESIDUE_STRING	ASSAY_TARGET	GROUP_LABEL
RSLRVLLPLYFE	Saccharomyces cerevisiae	True
PLKRNHLIKLLN	Saccharomyces cerevisiae	False
QRWRVGLWRGAS	Saccharomyces cerevisiae	True
RVTKLDAIYFRI	Saccharomyces cerevisiae	True
RLIQCLPVQFLN	Saccharomyces cerevisiae	False
PDKRMHLIKLLN	Saccharomyces cerevisiae	False
RSLWVLLPLYFR	Saccharomyces cerevisiae	True
ASTLPMCPLLLR	Saccharomyces cerevisiae	True
RSTRLDAIYFRI	Saccharomyces cerevisiae	True
PSLAASFWRVVGM	Saccharomyces cerevisiae	True
LVVYLSCCACIN	Saccharomyces cerevisiae	False
PPLAASFWRVVG	Saccharomyces cerevisiae	False
GLYMCSVQCWFR	Saccharomyces cerevisiae	True
VQGAVGGWRLVG	Saccharomyces cerevisiae	False
LVVYLSCVVCIN	Saccharomyces cerevisiae	False
CTRCGYKFRTNN	Saccharomyces cerevisiae	True
LKILRQKMTHQN	Saccharomyces cerevisiae	True
AAWRVGLWRGAS	Saccharomyces cerevisiae	True
CLNSLPILLFFR	Saccharomyces cerevisiae	False
VRGAVWGWRLVG	Saccharomyces cerevisiae	False
VRGAVGGWRKVG	Saccharomyces cerevisiae	False
PSEAASFWRVVG	Saccharomyces cerevisiae	False
FSMRWTFCYWVN	Saccharomyces cerevisiae	False
LKILRQKMNGQN	Saccharomyces cerevisiae	True
RVTTLDAIYFRI	Saccharomyces cerevisiae	True
PLYMCSVGCWFR	Saccharomyces cerevisiae	True
KKDKKGQKQKIN	Saccharomyces cerevisiae	False
PSLAASHWRVVG	Saccharomyces cerevisiae	False
VRGAVGGDRLVG	Saccharomyces cerevisiae	True
VRGAVGGWHLVG	Saccharomyces cerevisiae	True

* * *

system: Saccharomyces cerevisiae; test: protein stability index of tFT-peptide fusion (C-terminal peptide) (PSI (0-1 scale)); higher = more stable (slower turnover); details: genetic background: wild type; temperature: 30 C
PROPERTY_MEASURED: protein stability index

RESIDUE_STRING	OBSERVED_RESULT
RGCRLRCSLPGR	0.669
GVLWCGYGVGGG	0.762
PPPLSLLPAPPA	0.695
PAHAPSLSPPPF	0.697
PPPPLYPQPPPT	0.705
HSHIPPNLTYCP	0.694
GPFHILSSATRP	0.705
NTDSHIKIRKKI	0.703
LSFWGLLSFWTP	0.594
FGFLELTDPHGC	0.576
LPPRPGFLSSLP	0.64
QKKIIRKRKKNR	0.666
FVFDVTAYRGLL	0.738
HLHGKTERPSHL	0.811
FYPRPTVPPHGL	0.585
ASAYCCMITRLN	0.172
VFGWWSVVLRVA	0.109
LQCRAEFQRARC	0.666
GGGGMVVGEVVG	0.685
CNQRRWRGRKGY	0.67
GMLSIHWNIGGT	0.725
GLVVCDGGGVGC	0.684
SGDSVAVGVTGT	0.689
GRAVGLANFTIK	0.129
PIPSPAPLPPRP	0.675
VRLWLTLQQVDF	0.686
WARLVSSSLAAT	0.618
GCVVLGFDSVAV	0.842
VGFGLIVWSSGW	0.529
VQGFYPVSAEGG	0.674
RMSHFNTDSVHF	0.761
RSPSCSPSAVPL	0.738
LAGLLMSPNMSP	0.697
RFSVRGARHRCG	0.693
KKKKKKRNKQKN	0.752
KTENGRSNSETR	0.686
FVFWCFGSFCSC	0.553
DTSPSPPPLSVL	0.693
GGLIWRHGGGRG	0.688
YQPLWTNTITGT	0.799
IRHSTRTRPSSV	0.745
VYCQRFMLLFTP	0.487
PVPLLHPRSLSL	0.781
SFERPAQAHALA	0.698
WENMDKCSKGLI	0.677
GVIGGLRAGVGG	0.719
CGGRWGTYYRRV	0.7
NLPERSRANTLS	0.675
RAARVSVVAYPF	0.682
SVGFYMLECVDD	0.688
SVGCCLLCFFVL	0.425
RPPAPQTATPHR	0.726
LFLFVGCSVRRL	0.495
VTLLCRFFMLVF	0.369
RGLGCEVGTVEV	0.768

* * *

test system: Saccharomyces cerevisiae; experiment: protein stability index of tFT-peptide fusion (C-terminal peptide) (PSI (0-1 scale)); higher = more stable (slower turnover); conditions: genetic background: wild type; temperature: 37 C
Mark NO for protein stability index values under 0.5, and YES for everything at or above.

RESIDUE_STRING	ASSAY_TARGET	GROUP_LABEL
GMGRVLVEVLLC	Saccharomyces cerevisiae	NO
CVFFPFLGVCYV	Saccharomyces cerevisiae	NO
VHNIDLFVVCYI	Saccharomyces cerevisiae	NO
CLVSLPILLFFR	Saccharomyces cerevisiae	NO
LLVKFTFLIIFT	Saccharomyces cerevisiae	NO
HALCLSVYVSAH	Saccharomyces cerevisiae	NO
LIRVLRVLRHSS	Saccharomyces cerevisiae	NO
VVVRARVFFHIF	Saccharomyces cerevisiae	NO
RWRDGVAWVVVC	Saccharomyces cerevisiae	NO
GRCGGPRSLGVG	Saccharomyces cerevisiae	YES
RVCWLRAFGFLV	Saccharomyces cerevisiae	YES
LSLGVGSDAEGG	Saccharomyces cerevisiae	YES
VFLVGFRVTLDS	Saccharomyces cerevisiae	NO
VSGVLRSMVRLQ	Saccharomyces cerevisiae	YES
LSYRFVFRFLLF	Saccharomyces cerevisiae	NO
LASFCSVCIFIS	Saccharomyces cerevisiae	NO
SFHTFFCPFFIL	Saccharomyces cerevisiae	NO
SCIVRTLVPCPS	Saccharomyces cerevisiae	NO
ISVSFSVIFFLL	Saccharomyces cerevisiae	NO
LAEHIFLVLDHG	Saccharomyces cerevisiae	NO
EVTRMLRVVREI	Saccharomyces cerevisiae	YES
FFFFSVHLSFLD	Saccharomyces cerevisiae	NO
FYTYILTVAEAL	Saccharomyces cerevisiae	YES
PACPPLPPRSPS	Saccharomyces cerevisiae	YES
LFWTWVLVGVSV	Saccharomyces cerevisiae	NO
